src = patent US7511119B2

# System: T cell lines against natural epitope SSX-241-49
# procedure text: Cross-reactivity and functional avidity: IFN-gamma production by T cell lines raised against natural SSX-2 41-49;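 also: analogs presented ex vivo by competent APCs to T cells specific for the non-mutated epitope, scored by lowest activating concentration, peak cytokine effect and concentration at that peak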
# Format: cell-based, HHD transgenic mice
# condition details: T cells raised to native peptide tested on analogs; footnote * and unit not given
assay metric: Cross-reactivity and fct avidity (native to analogs)*
Response field accepts a number only; no unit should be typed.

Q: Identify the reported Cross-reactivity and fct avidity (native to analogs)* for the following entry. CC[C@H](C)[C@H](NC(=O)[C@H](CCCCN)NC(=O)[C@H](CCC(=O)O)NC(=O)[C@H](CO)NC(=O)[C@H](CC(C)C)NC(=O)[C@@H](N)Cc1ccccc1)C(=O)N[C@@H](Cc1ccccc1)C(=O)N[C@@H](Cc1ccc(O)cc1)C(=O)N[C@H](C(=O)O)C(C)C [SSX2 41-49 (K41F, A42L)]
Ans: 0.3
